src = patent US10925874B2

Target: N370S glucocerebrosidase from human spleen homogenate (Homo sapiens, UniProt P04062, N409S)
Construct: N370S glucocerebrosidase from human spleen homogenate as the enzyme preparation; from tissue; host or cells: human spleen homogenate
Experiment: qHTS fluorogenic enzyme assay for activators of N370S glucocerebrosidase (4-methylumbelliferyl-beta-D-glucopyranoside substrate)
Assay type: biochemical
Conditions: pH 5.0, 37° C. 40 min
Description: qHTS Assay for Inhibitors and Activators of N370S glucocerebrosidase as a Potential Chaperone Treatment of Gaucher Disease: Primary Screen Confirmation This is a fluorogenic enzyme assay with 4-methylumbelliferyl-beta-D-glucopyranoside as the substrate and N370S glucocerebrosidase from human spleen homogenate as the enzyme preparation. […] The AC50 values were determined from concentration-response data modeled with the standard Hill equation. […]
Measurement Kind: AC50 (µM)

[1] Cc1ccc(NC(=O)c2cnn3c(C)cc(C)nc23)cc1 [NCGC00188772-01]
[2] C=C1C=C(C(F)F)n2ncc(C(=O)NCc3ccc(Cl)cc3Cl)c2N1 [NCGC00182146-01]
[3] Cc1cc(C)n2ncc(C(=O)NCc3ccco3)c2n1 [NCGC00188759-01]
QUERY: List the 3 entries from lowest AC50 to highest AC50 value. Record the ranking as a list of labels in the requested order.
RESULT: 1, 2, 3
(1: 1.63 µM, 2: 10 µM, 3: 51.7 µM)

---

Molecular target: N370S glucocerebrosidase from human spleen homogenate (Homo sapiens, UniProt P04062, N409S)
Construct: N370S glucocerebrosidase from human spleen homogenate as the enzyme preparation; from tissue; host or cells: human spleen homogenate
Assay: qHTS fluorogenic enzyme assay for activators of N370S glucocerebrosidase (4-methylumbelliferyl-beta-D-glucopyranoside substrate)
Assay type: biochemical
Details: pH 5.0, 37° C. 40 min
Measurement Kind: AC50 (µM)

[a] Cc1ccc(NC(=O)c2cnn3c(-c4ccccc4)cc(C)nc23)cc1 [NCGC0229718-01]
[b] O=C(Nc1cccc(Nc2ccccc2)c1)c1cnn2c1NC(=C1CC1)C=C2C(F)F [NCGC00182185-01]
QUERY: Sort a and b by AC50 descending and give the first. Give the chosen item's label as your response.
RESULT: a

---

Target: N370S glucocerebrosidase from human spleen homogenate (Homo sapiens, UniProt P04062, N409S)
Construct: N370S glucocerebrosidase from human spleen homogenate as the enzyme preparation; from tissue; host or cells: human spleen homogenate
Sequence (P04062 40-536 N409S): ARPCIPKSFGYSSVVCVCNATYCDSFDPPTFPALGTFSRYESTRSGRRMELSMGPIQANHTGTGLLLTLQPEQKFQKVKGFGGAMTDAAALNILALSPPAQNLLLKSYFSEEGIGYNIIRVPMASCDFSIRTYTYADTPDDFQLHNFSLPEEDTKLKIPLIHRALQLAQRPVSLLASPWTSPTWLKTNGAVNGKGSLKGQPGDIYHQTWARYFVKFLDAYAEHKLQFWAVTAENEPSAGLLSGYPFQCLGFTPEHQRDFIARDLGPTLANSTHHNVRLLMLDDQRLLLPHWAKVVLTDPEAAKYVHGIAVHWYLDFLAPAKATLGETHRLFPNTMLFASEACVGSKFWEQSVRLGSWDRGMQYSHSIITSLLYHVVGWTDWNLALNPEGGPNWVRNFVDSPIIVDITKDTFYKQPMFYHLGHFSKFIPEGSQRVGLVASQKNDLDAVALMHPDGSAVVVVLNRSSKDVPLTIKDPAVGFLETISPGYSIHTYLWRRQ
Experiment: qHTS fluorogenic enzyme assay for activators of N370S glucocerebrosidase (4-methylumbelliferyl-beta-D-glucopyranoside substrate)
Assay type: biochemical
Settings: pH 5.0, 37° C. 40 min
Measurement Kind: AC50 (µM)

Worked examples, 3 molecules total:
Molecule: Cc1cc(C)n2ncc(C(=O)Nc3ccc4c(c3)OCCO4)c2n1 [NCGC00188773-01]
Unit Info: µM
Value Measured: 10.3

Molecule: Cc1cc(C)n2ncc(C(=O)Nc3ccc(C(C)(C)C)cc3)c2n1 [NCGC00188764-01]
Unit Info: µM
Value Measured: 2.31

Molecule: O=C(Nc1ccc(Br)cc1F)c1cnn2c1NC(=C1CC1)C=C2C(F)F [NCGC00182179-01]
Unit Info: µM
Value Measured: 2.51

[a] Cc1cc(C)n2ncc(C(=O)Nc3ccc(C)c(C)c3)c2n1 [NCGC00188783-01]
[b] CC(C)(C)C1CCC(NC(=O)c2cnn3c2NC(=C2CC2)C=C3C(F)F)CC1 (stereo not drawn) [NCGC00182182-01]
[c] C=C1C=C(C)n2ncc(C(=O)Nc3ccc(F)cc3F)c2N1 [NCGC00182166-01]
[d] C=C1C=C(C(F)F)n2ncc(C(=O)NCCc3ccccc3Cl)c2N1 [NCGC00182151-01]
QUERY: Put the items in sequence by AC50, from largest down. Please list the labels according to the requested order.
RESULT: d, b, c, a

[P] C=C1C=C(C(F)F)n2ncc(C(=O)NCc3ccccc3Cl)c2N1 [NCGC00182148-01]
[Q] Cc1cc(C)n2ncc(C(=O)Nc3ccc(Cl)c(Cl)c3)c2n1 [NCGC00229713-01]
QUERY: Which item exceeds the other in AC50, P or Q ? // output: label of the selected item
RESULT: P
